System: SK-MEL-5 melanoma
Assay: NCI tumour cell line growth inhibition, 48 h
Below, each entry is listed with its recorded TGI.
Supply the numeric figure in µM, leaving out any unit text.

compound	observed.measurement
CCCCCCCCCCCCCCCCCCOc1ccccc1COP(=O)(O)OOCC[N+](C)(C)C	1.5
c1ccc(/C(=N/Nc2ccccn2)c2cccnn2)cc1	52.3
CC(C)C(=O)/C=C/c1c(Cl)cccc1Cl	18.2

Give reported TGI value for `CN(C)c1ccc(/C=c2/c3cc(O)ccc3n3c2cc(-c2ccccc2)[n+]3C)cc1` 2.04

Give reported TGI value for CC(=O)OCC1OC(O[C@H]2C=C[C@@H](C(=O)OCc3ccccc3)n3c(=O)n(-c4ccccc4)c(=O)n32)C(OC(C)=O)C(OC(C)=O)C1OC(C)=O (some centres undefined) 5.66

Give reported TGI value for `COc1cc(N2CCC(N)CC2)ccc1Nc1ncc(Cl)c(-c2c[nH]c3ccccc23)n1` 2.84

Give reported TGI value for `Cc1ccccc1-n1c(CCl)nc2ccc(Br)cc2c1=O` 22.9

Give reported TGI value for `N=c1oc2cc(O)ccc2cc1C(=O)Nc1cccc2ccccc12` 15.8
